- experimental system: GCS enzyme contained within Golgi preparations isolated from human A375 malignant melanoma skin cells (Homo sapiens, UniProt Q16739)
- Construct: endogenous levels of GCS enzyme contained within Golgi preparations isolated from human A375 malignant melanoma skin cells; endogenous in cells; host or cells: A375 human malignant melanoma cells (crude Golgi preparation)
- method description: UDP-Glo glucosylceramide synthase biochemical assay
- run parameters: crude Golgi preparation from A375 cells; C6 ceramide and UDP-glucose substrates; 20 h incubation at room temperature; UDP detected by luminescence
Please provide measured pEC50 for the entries that follow.
One number for each entry, as −log10 of the molar value.

Answered cases to consult:
COc1cnc2cc(-c3cccc4c3C(=O)N([C@H](C3CC3)C(C)(C)O)C4)ccc2n1 [Compound 75]
8.06
COc1nccc(C(=O)Nc2cccc3c2C(=O)N([C@H](C2CC2)C(C)(C)O)C3)c1C [Compound 159]
8.60
CCOc1ccccc1C(=O)Nc1cccc2c1C(=O)N(C(CO)C1CCC1)C2 (racemic) [Compound 101]
6.80
CC(C)(O)C(C1CC1)N1Cc2cccc(OCc3ccnc4c3CCC4)c2C1=O (single isomer, unassigned) [Compound 180]
7.46
CN1C(=O)Cc2cc(-c3cccc4c3C(=O)N([C@H](C3CC3)C(C)(C)O)C4)ccc21 [Compound 85]
8.09

Please give pEC50 for each item listed below.
1. Cc1cnc2c(c1C(=O)Nc1cccc3c1C(=O)N([C@@H](C)C1CC1)C3)OCO2 [Compound 134]
2. COc1nccc(C(=O)Nc2cccc3c2C(=O)N(C(C2CC2)C(C)(C)O)C3)c1OC (single isomer, unassigned) [Compound 164]

(A)
[7.23, 7.11]

---

Please provide measured EC50 for the entries that follow.
- experimental system: GCS enzyme contained within Golgi preparations isolated from human A375 malignant melanoma skin cells (Homo sapiens, UniProt Q16739)
- Construct: endogenous levels of GCS enzyme contained within Golgi preparations isolated from human A375 malignant melanoma skin cells; endogenous in cells
- Sequence (Q16739 1-394): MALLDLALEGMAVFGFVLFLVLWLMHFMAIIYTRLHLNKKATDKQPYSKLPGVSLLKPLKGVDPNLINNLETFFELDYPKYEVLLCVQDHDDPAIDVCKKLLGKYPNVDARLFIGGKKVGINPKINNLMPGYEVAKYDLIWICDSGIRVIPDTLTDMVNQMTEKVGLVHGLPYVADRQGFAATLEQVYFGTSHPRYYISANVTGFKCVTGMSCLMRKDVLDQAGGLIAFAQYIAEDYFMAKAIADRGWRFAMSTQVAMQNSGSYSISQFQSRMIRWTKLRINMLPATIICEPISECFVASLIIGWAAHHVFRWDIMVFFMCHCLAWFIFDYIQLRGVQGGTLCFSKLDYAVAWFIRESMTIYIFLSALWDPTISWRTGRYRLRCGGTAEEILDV
- method description: UDP-Glo glucosylceramide synthase biochemical assay
- run parameters: crude Golgi preparation from A375 cells; C6 ceramide and UDP-glucose substrates; 20 h incubation at room temperature; UDP detected by luminescence
One number for each entry, in nM.

Please give EC50 for each item listed below.
1. Cc1ccc(-c2ccc(-c3cccc4c3C(=O)N(C(C3CC3)C(C)(C)O)C4)cc2)nn1 (racemic)
2. CC(C)(O)C(C1CC1)N1Cc2cccc(NC(=O)c3cccc4ncsc34)c2C1=O (single isomer, unassigned)

(A)
1. 45
2. 45

Please give EC50 for each item listed below.
1. Cc1cnc2c(c1COc1cccc3c1C(=O)N(C(C1CC1)C(C)(C)O)C3)OCO2 (single isomer, unassigned)
2. Cc1cc(-c2cccc3c2C(=O)N(C(C2CC2)C(C)(C)O)C3)cc(C)n1 (racemic)
3. O=C1c2c(cccc2-c2ccc(F)cc2)CN1CCC1CN2CCC1CC2 (racemic)
4. CC(C)(O)C(C1CC1)N1Cc2cccc(NC(=O)c3cccc(F)c3C(F)(F)F)c2C1=O (single isomer, unassigned)
5. Cc1cc(-c2ccc(-c3cccc4c3C(=O)N([C@H](C3CC3)C(C)(C)O)C4)cc2)on1

(A)
1. 54
2. 67
3. 160
4. 3.1
5. 2
